Item-by-item account of ratio to parent
Target: recombinant lectin domain of FimH with FLAG tag (rFimHLD-FLAG), P08191
Sequence (P08191 22-156): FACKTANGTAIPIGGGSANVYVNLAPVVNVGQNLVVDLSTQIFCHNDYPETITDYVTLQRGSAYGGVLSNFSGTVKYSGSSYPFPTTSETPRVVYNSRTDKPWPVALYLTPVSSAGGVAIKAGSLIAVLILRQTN
Assay: western blot quantification of rFimHLD-FLAG bound to rPPAP-HA
Settings: chain shown with the change; n = 3 biological replicates; parent: est. 1.0; read off a plot
Parameter: ratio to parent

>>> endpoint_result("HA-tagged PPAP recombinant protein, isoform 2 (membrane protein), wild type (rPPAP-HA WT), P15309-2 N220A (protein) KELKFVTLVFRHGDRSPIDTFPTDPIKESSWPQGFGQLTQLGMEQHYELGEYIRKRYRKFLNESYKHEQVYIRSTDVDRTLMSAMTNLAALFPPEGVSIWNPILLWQPIPVHTVPLSEDQLLYLPFRNCPRFQELESETLKSEEFQKRLHPYKDFIATLGKLSGLHGQDLFGIWSKVYDPLYCESVHAFTLPSWATEDTMTKLRELSELSLLSLYGIHKQKEKSRLQGGVLVNEILNHMKRATQIPSYKKLIMYSAHDTTVSGLQMALDVYNGLLPPYASCHLTELYFEKGEYFVEMYYRNETQHEPYPLMLPGCSPSCPLERFAELVGPVIPQDWSTECMTTNSHQVLKVIFAVAFCLISAVLMVLLFIHIRRGLCWQRESYGNI")
0.68
>>> endpoint_result("HA-tagged PPAP recombinant protein, isoform 2 (membrane protein), wild type (rPPAP-HA WT), P15309-2 N333A (protein) KELKFVTLVFRHGDRSPIDTFPTDPIKESSWPQGFGQLTQLGMEQHYELGEYIRKRYRKFLNESYKHEQVYIRSTDVDRTLMSAMTNLAALFPPEGVSIWNPILLWQPIPVHTVPLSEDQLLYLPFRNCPRFQELESETLKSEEFQKRLHPYKDFIATLGKLSGLHGQDLFGIWSKVYDPLYCESVHNFTLPSWATEDTMTKLRELSELSLLSLYGIHKQKEKSRLQGGVLVNEILNHMKRATQIPSYKKLIMYSAHDTTVSGLQMALDVYNGLLPPYASCHLTELYFEKGEYFVEMYYRAETQHEPYPLMLPGCSPSCPLERFAELVGPVIPQDWSTECMTTNSHQVLKVIFAVAFCLISAVLMVLLFIHIRRGLCWQRESYGNI")
0.6
>>> endpoint_result("HA-tagged PPAP recombinant protein, isoform 2 (membrane protein), wild type (rPPAP-HA WT), P15309-2 N94A (protein) KELKFVTLVFRHGDRSPIDTFPTDPIKESSWPQGFGQLTQLGMEQHYELGEYIRKRYRKFLAESYKHEQVYIRSTDVDRTLMSAMTNLAALFPPEGVSIWNPILLWQPIPVHTVPLSEDQLLYLPFRNCPRFQELESETLKSEEFQKRLHPYKDFIATLGKLSGLHGQDLFGIWSKVYDPLYCESVHNFTLPSWATEDTMTKLRELSELSLLSLYGIHKQKEKSRLQGGVLVNEILNHMKRATQIPSYKKLIMYSAHDTTVSGLQMALDVYNGLLPPYASCHLTELYFEKGEYFVEMYYRNETQHEPYPLMLPGCSPSCPLERFAELVGPVIPQDWSTECMTTNSHQVLKVIFAVAFCLISAVLMVLLFIHIRRGLCWQRESYGNI")
0.78
